// values below are reported polymerase ribozyme fitness (log ratio)
B1: TPR 5TU (parent)
chain: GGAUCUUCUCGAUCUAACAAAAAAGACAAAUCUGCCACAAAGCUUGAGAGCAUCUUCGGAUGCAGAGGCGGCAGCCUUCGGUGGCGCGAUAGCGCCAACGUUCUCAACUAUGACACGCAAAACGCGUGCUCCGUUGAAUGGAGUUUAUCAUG

variants of: B1; assay: polymerase ribozyme fitness, log enrichment relative to wild type (log ratio); higher = more active; in vitro selection for triplet polymerase activity
Fewer inactive variants are shown than the library holds.

Answered cases to consult:
sequence-variant: G70C C76A C79U C87A
result-value: ≤ -4.2
--
sequence-variant: C96A U139C
result-value: -3.61
--
sequence-variant: A60C C76U G88U C116G U135G A142G U148G
result-value: ≤ -4.2
--
sequence-variant: A17C C54A
result-value: -1.11
--
sequence-variant: A12G U56G C85G
result-value: -2.2

I have this variant here, A49C A66C G81C G83U C99U U101G C108U , and I need its recorded polymerase ribozyme fitness (log ratio).
≤ -4.2

For the variant C63G A73G , what polymerase ribozyme fitness (log ratio) is on record?
-0.51

Fill in the blank: the reported polymerase ribozyme fitness (log ratio) of A49C C51A C99U C132G is ____.
≤ -4.2
